Biological target: Sigma non-opioid intracellular receptor 1 (Cavia porcellus, UniProt Q60492)
Sequence (Q60492 whole entry): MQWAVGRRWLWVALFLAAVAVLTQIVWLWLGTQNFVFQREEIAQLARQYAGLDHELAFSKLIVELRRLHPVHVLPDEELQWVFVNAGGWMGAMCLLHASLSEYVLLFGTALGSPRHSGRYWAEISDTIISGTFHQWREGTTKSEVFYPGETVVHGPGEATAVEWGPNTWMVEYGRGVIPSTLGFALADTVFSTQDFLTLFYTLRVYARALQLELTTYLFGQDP
Test: Displacement of [3H]-(+)-pentazocine from sigma1 receptor in guinea pig brain cortex membranes incubated for 120 mins by solid scintillation counting method
pKi: −log10 of the molar value.
readout: pKi

Study these solved cases before continuing.
[[record]]
compound = "OC1CC(NCCCCc2ccccc2)CCc2ccccc21 (mixture of isomers)"
endpoint_result = 6.85

[[record]]
compound = "CN(CCCCc1ccccc1)C1CCc2ccccc2C(O)C1 (mixture of isomers)"
endpoint_result = 7.48


1. CN(CCCc1ccccc1)C1CCc2ccccc2C(O)C1 (mixture of isomers)
2. OC1CC(NCCCc2ccccc2)CCc2ccccc21 (mixture of isomers)
3. OC1Cc2ccccc2CCC1NCCCCc1ccccc1 (mixture of isomers)
4. OC1Cc2ccccc2CCC1NCCCc1ccccc1 (mixture of isomers)
Request: Let's sort these by pKi, smallest first. Go ahead? Returns: the labels listed in the requested order.
Response: 4, 3, 2, 1
(4: 5.89, 3: 6.37, 2: 6.80, 1: 7.41)

Reference source: ChEMBL document CHEMBL4312002
